target-under-test: human MC4R (Homo sapiens)
Construct: expressed in transfected cells; host or cells: HEK293/MC4R/CRE-GFP
Sequence (P32245 whole entry): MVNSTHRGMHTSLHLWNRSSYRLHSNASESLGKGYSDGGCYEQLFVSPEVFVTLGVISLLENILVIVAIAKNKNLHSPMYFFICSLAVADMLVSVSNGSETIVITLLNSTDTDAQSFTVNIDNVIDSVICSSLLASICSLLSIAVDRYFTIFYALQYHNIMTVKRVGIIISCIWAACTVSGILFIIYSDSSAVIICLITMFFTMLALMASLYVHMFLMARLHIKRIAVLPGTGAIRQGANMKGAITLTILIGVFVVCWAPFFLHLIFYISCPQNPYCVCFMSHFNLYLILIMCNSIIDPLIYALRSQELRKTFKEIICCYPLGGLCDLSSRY
procedure-summary: cAMP accumulation assay (HTRF), antagonist activity at MC4R
Format: cell-based
cond: dose-response fit, MC4R
Positions of bridges follow the written chain, without caps; N, C: chain ends. Non-standard residues stand in square brackets, D forms with d. Residues, ends and D or L forms follow the SMILES beside them. d2Nal = N[C@H](Cc1ccc2ccccc2c1)C(=O)O; Hyp = O=C(O)[C@@H]1C[C@@H](O)CN1; Nle = CCCC[C@H](N)C(=O)O
measured-attribute: Hill Coefficient

Consider the following illustrative entries.
>  <compound>
CCCC[C@H](NC(C)=O)C(=O)N[C@H]1CC(=O)NCCCC[C@@H](C(=O)N[C@@H](C(=O)N2CCC[C@@H]2C(N)=O)C(C)C)NC(=O)[C@H](Cc2c[nH]c3ccccc23)NC(=O)[C@H](CCCNC(=N)N)NC(=O)[C@@H](Cc2ccc3ccccc3c2)NC(=O)[C@@H]2C[C@@H](O)CN2C1=O [Peptide D3] (Ac-[Nle]D[Hyp][d2Nal]RWK[dV][dP]-NH2; lactam 2-7)

>  <measured-attribute>
Hill Coefficient

>  <value-measured>
0.80

$$$$
>  <compound>
CCCC[C@H](NC(C)=O)C(=O)N[C@H]1CC(=O)NCCCC[C@@H](C(=O)N2CCC[C@@H]2C(=O)N[C@@H](C(N)=O)C(C)C)NC(=O)[C@H](Cc2c[nH]c3ccccc23)NC(=O)[C@H](CCCNC(=N)N)NC(=O)[C@@H](Cc2ccc3ccccc3c2)NC(=O)[C@H](Cc2c[nH]cn2)NC(=O)[C@@H]2CCCN2C1=O [Peptide D5] (Ac-[Nle]DPH[d2Nal]RWK[dP][dV]-NH2; lactam 2-8)

>  <measured-attribute>
Hill Coefficient

>  <value-measured>
0.67

$$$$

Here is another compound to look at.
Hill Coefficient value, target or system human MC4R (Homo sapiens), for CCCC[C@H](NC(C)=O)C(=O)N[C@H]1CC(=O)NCCCC[C@@H](C(=O)N[C@@H](C(=O)N2CCC[C@@H]2C(N)=O)C(C)C)NC(=O)[C@@H]2CCCN2C(=O)[C@H](Cc2c[nH]c3ccccc23)NC(=O)[C@H](CCCNC(=N)N)NC(=O)[C@@H](Cc2ccc3ccccc3c2)NC(=O)[C@@H]2C[C@@H](O)CN2C1=O [Peptide D4] (Ac-[Nle]D[Hyp][d2Nal]RWPK[dV][dP]-NH2; lactam 2-8) : 0.92
